assay: Cytotoxicity against mouse Melan-a cells assessed as cell viability at 30 uM; assay type: cell-based; settings: Melan-a cells, read-out: Activity
assay.endpoint: viability at 30 µM (%)

[[record]]
structure_notation = "CCc1ccc(C(=O)Nc2cc(C(F)(F)F)cc(C(F)(F)F)c2)cc1"
measure_unit = "%"
reading = 16.5

[[record]]
structure_notation = "CCCCOc1ccc(NC(=O)c2ccc(C#N)cc2)cc1"
measure_unit = "%"
reading = -4.4

[[record]]
structure_notation = "Cc1ccc(NC(=O)c2ccc(C#N)cc2)cc1"
measure_unit = "%"
reading = 10.9

[[record]]
structure_notation = "COc1ccc(NC(=O)c2c(OC)cccc2OC)cc1"
measure_unit = "%"
reading = 10.2

[[record]]
structure_notation = "O=C(Nc1cc(C(F)(F)F)cc(C(F)(F)F)c1)c1ccco1"
measure_unit = "%"
reading = 31.9

[[record]]
structure_notation = "COc1ccccc1NC(=O)c1ccco1"
measure_unit = "%"
reading = -5.4

[[record]]
structure_notation = "COc1ccccc1NC(=O)c1ccc(C#N)cc1"
measure_unit = "%"
reading = -3.1

[[record]]
structure_notation = "COc1cccc(C(=O)Nc2cc(C(F)(F)F)cc(C(F)(F)F)c2)c1"
measure_unit = "%"
reading = 9

[[record]]
structure_notation = "COc1ccc(C(=O)Nc2ccc(C)cc2)cc1"
measure_unit = "%"
reading = 0.7

[[record]]
structure_notation = "COC(=O)c1cccc(NC(=O)c2ccc(C#N)cc2)c1"
measure_unit = "%"
reading = 0.8

[[record]]
structure_notation = "CC(=O)c1ccc(NC(=O)c2ccc(C#N)cc2)cc1"
measure_unit = "%"
reading = 6.9

[[record]]
structure_notation = "COc1cccc(C(=O)Nc2ccc(C)cc2)c1"
measure_unit = "%"
reading = 7.5

[[record]]
structure_notation = "CCc1ccc(C(=O)Nc2ccc(OC)cc2)cc1"
measure_unit = "%"
reading = -9.9

[[record]]
structure_notation = "COc1ccc(C(=O)Nc2ccc(OC)cc2OC)cc1"
measure_unit = "%"
reading = -9.4

[[record]]
structure_notation = "COc1cccc(NC(=O)c2ccc(C#N)cc2)c1"
measure_unit = "%"
reading = -9.4

[[record]]
structure_notation = "COc1cccc(NC(=O)c2ccc(C)cc2)c1"
measure_unit = "%"
reading = 2.7

[[record]]
structure_notation = "COc1ccc(C(=O)Nc2cc(OC)ccc2OC)cc1"
measure_unit = "%"
reading = -8.3

[[record]]
structure_notation = "COc1cccc(NC(=O)c2cccc(OC)c2)c1"
measure_unit = "%"
reading = -8.4

[[record]]
structure_notation = "COC(=O)c1cccc(NC(=O)c2ccc(OC)cc2)c1"
measure_unit = "%"
reading = 18.8

[[record]]
structure_notation = "CCCCOc1ccc(NC(=O)c2cccc(OC)c2)cc1"
measure_unit = "%"
reading = 19.1

[[record]]
structure_notation = "COc1ccccc1NC(=O)c1cccc(C)c1"
measure_unit = "%"
reading = 11.1

[[record]]
structure_notation = "COc1ccc(OC)c(NC(=O)c2ccccc2C)c1"
measure_unit = "%"
reading = 8.6

[[record]]
structure_notation = "COc1cccc(C(=O)Nc2ccc(OC)cc2OC)c1"
measure_unit = "%"
reading = -3.9

[[record]]
structure_notation = "Cc1cccc(NC(=O)c2ccco2)c1"
measure_unit = "%"
reading = -1.3

[[record]]
structure_notation = "Cc1cccc(C(=O)Nc2cc(C(F)(F)F)cc(C(F)(F)F)c2)c1"
measure_unit = "%"
reading = -2.3

[[record]]
structure_notation = "COC(=O)c1ccccc1NC(=O)c1cccc(C)c1"
measure_unit = "%"
reading = 29.6

